# target-or-test-system: T1, human CD47-linker peptide-hIgG1Fc (human)
# T1 construct: also called Human CD47-hFc; human CD47-hFc
# test-details: competition ELISA: human CD47-hFc coated, blocked ligand human SIRP-his
Parameter IC50 (read off the curve): see the listing below.

binder="B6H12 (commercialized CD47 antibody, purchased from Abcam, catalog No. ab3283) (antibody) EVQLVESGGDLVKPGGSLKLSCAASGFTFSGYGMSWVRQTPDKRLEWVATITSGGTYTYYPDSVKGRFTISRDNAKNTLYLQIDSLKSEDTAIYFCARSLAGNAMDYWGQGTSVTVSSGGGGSGGGGSGGGGSDIVMTQSPATLSVTPGDRVSLSCRASQTISDYLHWYQQKSHESPRLLIKFASQSISGIPSRFSGSGSGSDFTLSINSVEPEDVGVYYCQNGHGFPRTFGGGTKLEIK" reported_result="~1 µg/mL"
binder="059-1.43.1 (antibody, mouse IgG1, V domains shown, also called 059-1.43.1 purified antibody) VH: QVQLQQSGAELVRPGASVTLSCKASGYTFTDYEMHWVKQTPVHGLEWIGAIDPETGGTAYNQKFKGKATLTADKSSSTAYMELRSLTSEDSAVYYCTRGTPYAMDYWGQGTSVTVSS VL: DVVMTQTPLSLPVSLGDQASISCRSSQSLVHSNGNTYLHWYLQKPGQSPKLLIYKVSNRFSGVPDRFSGSGSGTDFTLKISRVEAEDLGVYFCSQSTHVPWTFGGGTKLEIK" reported_result="~0.9 µg/mL"
binder="059-1.30.1 (antibody, mouse IgG1, V domains shown, also called 059-1.30.1 purified antibody) VH: EVQLQQSGPELVKPGASVRMSCKASGYTFTNYVMHWVKQKPGQGLEWIGYINPYNDGTKYSEKFKGKATLTSDKSSITAYMELSSLTSEDSAVYYCAKGGLFTFDYWGQGTTLTVSS VL: DVVMTQTPLSLPVSLGDQASISCRSSQSLVHSKGNTYLHWYLQKPGQSPKLLIYRVSNRFSGVPDRFSGSGSGTDFTLKISRVEAEDLGVYFCSQSTHVPFTFGSGTKLEIK" reported_result="~1 µg/mL"

Then this binder:
So for 059-1.20.1 (antibody, mouse IgG1, V domains shown, also called 059-1.20.1 purified antibody) VH: EVQLQQSGPELVKPGASVNMSCKASGYTFTNYFLHWVKQKPGQGLEWIGYINPYNDGTNYNENFKGKATLTSDKSSSTAYMELSSLTSEDSAVYYCAKGGWFSMDYWGQGTSVTVSS VL: DVVMTQTPLSLPVSLGDQASISCRSSQSLVHSNGKTYLQWYLQKPGQSPKLLIYKVSNRFSGVPDRFSGSGSGTDFTLKISRVEAEDLGVYFCSQSTHVYTFGGGTKLEIK , the logged IC50 (read off the curve) turned out to be ~1 µg/mL
